biological target: Recombinant human P2X7R (Homo sapiens, UniProt Q99572); construct: complete extracellular domain, 36.8 kDa; purchased Abbexa LTD, Cambridge, UK; experiment: SPR binding to immobilized P2X7R extracellular domain; conditions: Biacore 3000, CM5 chip, P2X7R a.a. 47–334, HBS-N pH 7.4, 25 °C, peptide 5–100 μM, two-state (conformational change) binding model
Sequence (Q99572 47-334): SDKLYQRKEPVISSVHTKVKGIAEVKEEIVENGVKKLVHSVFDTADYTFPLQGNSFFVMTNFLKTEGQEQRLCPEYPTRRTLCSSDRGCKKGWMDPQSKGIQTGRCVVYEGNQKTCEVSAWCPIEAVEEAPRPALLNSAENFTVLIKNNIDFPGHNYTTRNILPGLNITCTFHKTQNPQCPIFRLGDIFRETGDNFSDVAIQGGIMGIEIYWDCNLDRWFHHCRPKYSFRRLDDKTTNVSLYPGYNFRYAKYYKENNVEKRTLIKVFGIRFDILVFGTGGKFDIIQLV
Bridge positions count the residues as written; N and C are the ends. Ends that are not written are not given here.
Provide the recorded pKd for the entries that follow.
Give bare numbers, as −log10 of the molar value.

primarysequence="IQGNICSEPKKVGRCRGSFPRFYFDSETGKCTPFIYGGCGGNGNNFETLRRCRAICRA (disulfide 6-56, 15-39, 31-52) [HMIQ3c1]" targetundertest="Recombinant human P2X7R (Homo sapiens, UniProt Q99572)" assayvalue=4.36

Attention now shifts to the item below.
Incoming: What pKd value was documented for this sequence, IQGNICSEPKKVGRCRESFPRFYFDSETGKCTPFIYGGCGGNGNNFETLHACRAICRA (disulfide 6-56, 15-39, 31-52) [HCIQ4c7] ?
Outgoing: 4.34
